Source listed as patent US8394834B2.

Biological target: recombinant human NK3 receptor (Homo sapiens, UniProt P29371)
Experiment: [3H]SR142801 competition binding assay
Conditions: hNK3 receptor, membranes from HEK293 cells transiently expressing the receptor, [3H]SR142801 radioligand
Procedure: [^3H]SR142801 Competition Binding Assay hNK3 receptor binding experiment were performed using [^3H]SR142801 (Catalog No. TRK1035, specific activity: 74.0 Ci/mmol, Amersham, GE Healthcare UK limited, Buckinghamshire, UK) and membrane isolated from HEK293 cells transiently expressing recombinant human NK3 receptor. […] Nonspecific binding was measured in the presence of 10 μM SB222200 for both radioligands. […]
Quantity Name: pKi
// pKi is dimensionless: -log10 of concentration (M)

Item C[C@H](Oc1ccc(Cl)cn1)[C@H]1CN(C(=O)C2CCN(c3cccc(C#N)n3)CC2)C[C@@H]1c1ccc(Cl)cc1 has what recorded pKi? 8.82

Item C[C@H](Oc1ccc(Cl)cn1)[C@H]1CN(C(=O)C2CCN(c3ccc(C#N)nn3)CC2)C[C@@H]1c1ccc(Cl)cc1 has what recorded pKi? 9.30

Item C[C@H](Oc1ccc(Cl)cn1)[C@H]1CN(C(=O)C2CCN(c3ncccc3C#N)CC2)C[C@@H]1c1ccc(Cl)cc1 has what recorded pKi? 8.21

###

Molecular target: recombinant human NK3 receptor (Homo sapiens)
Sequence (P29371 1-465): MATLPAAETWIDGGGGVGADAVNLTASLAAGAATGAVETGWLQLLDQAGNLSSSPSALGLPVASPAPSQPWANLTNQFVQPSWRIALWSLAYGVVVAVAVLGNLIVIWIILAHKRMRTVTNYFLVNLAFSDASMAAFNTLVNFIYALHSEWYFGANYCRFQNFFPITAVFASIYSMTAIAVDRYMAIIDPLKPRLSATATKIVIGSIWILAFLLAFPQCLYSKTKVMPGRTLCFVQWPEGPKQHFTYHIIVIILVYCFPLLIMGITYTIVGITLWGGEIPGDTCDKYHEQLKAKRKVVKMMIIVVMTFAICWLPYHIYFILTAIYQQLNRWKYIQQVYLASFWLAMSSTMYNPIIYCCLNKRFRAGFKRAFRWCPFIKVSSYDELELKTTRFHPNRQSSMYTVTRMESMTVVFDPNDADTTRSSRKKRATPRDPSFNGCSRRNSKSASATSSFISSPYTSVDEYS
Experiment: [3H]SR142801 competition binding assay
Details: hNK3 receptor, membranes from HEK293 cells transiently expressing the receptor, [3H]SR142801 radioligand
Listed here: items and their measured pKi.
// pKi is dimensionless: -log10 of concentration (M)

CC(=O)c1ccc(N2CCC(C(=O)N3C[C@H]([C@H](C)Oc4ccc(Cl)cn4)[C@@H](c4ccc(Cl)cc4)C3)CC2)cc1	9.40
C[C@H](Oc1ccc(F)cn1)[C@H]1CN(C(=O)C2CCN(c3ccc(C#N)nn3)CC2)C[C@@H]1c1ccc(Cl)cc1	9.10
C[C@H](Oc1ccc(Cl)cn1)[C@H]1CN(C(=O)C2CCN(c3ncccn3)CC2)C[C@@H]1c1ccc(Cl)cc1	8.68

Item C[C@H](Oc1ccc(F)cn1)[C@H]1CN(C(=O)C2CCN(c3ccc(C#N)cn3)CC2)C[C@@H]1c1ccc(Cl)cc1 has what recorded pKi? 8.92

Item C[C@H](Oc1ccc(Cl)cn1)[C@H]1CN(C(=O)C2CCN(c3ccc(C#N)cn3)CC2)C[C@@H]1c1ccc(F)c(F)c1 has what recorded pKi? 9.05

Item COc1ccc(N2CCC(C(=O)N3C[C@H]([C@H](C)Oc4ccc(Cl)cn4)[C@@H](c4ccc(Cl)cc4)C3)CC2)nc1 has what recorded pKi? 9.15

Item C[C@H](Oc1ccc(Cl)cn1)[C@H]1CN(C(=O)C2CCN(c3ccc(C#N)cn3)CC2)C[C@@H]1c1ccc(Cl)cc1 has what recorded pKi? 9.40

Item C[C@H](Oc1ccc(Cl)cn1)[C@H]1CN(C(=O)C2CCN(c3ccc(C(F)(F)F)cn3)CC2)C[C@@H]1c1ccc(Cl)cc1 has what recorded pKi? 9.10
